Data credit: paper PMC8497156

Molecular target: dihydroorotase (ScDHOase-T106A) (Saccharomyces cerevisiae, UniProt P20051, T106A)
Sequence (P20051 whole entry T106A): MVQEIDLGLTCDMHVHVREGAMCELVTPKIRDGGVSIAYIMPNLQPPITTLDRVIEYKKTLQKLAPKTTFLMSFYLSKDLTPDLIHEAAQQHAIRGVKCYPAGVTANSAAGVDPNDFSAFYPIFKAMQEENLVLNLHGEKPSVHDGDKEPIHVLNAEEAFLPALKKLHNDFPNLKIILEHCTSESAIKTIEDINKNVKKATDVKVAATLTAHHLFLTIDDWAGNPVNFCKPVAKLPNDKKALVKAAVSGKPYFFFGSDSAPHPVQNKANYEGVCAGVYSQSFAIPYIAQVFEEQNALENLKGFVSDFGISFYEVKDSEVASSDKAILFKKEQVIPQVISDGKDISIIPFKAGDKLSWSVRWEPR
Experiment: intrinsic fluorescence quenching titration
Recorded Metric: Kd (µM)
Numbers only, in µM.

Request: Given the compound O=C(O)c1[nH]c(=O)[nH]c(=O)c1F [5-FOA, 5-fluoroorotate] , write its reported Kd.
Response: 115

====

Biological target: dihydroorotase (ScDHOase-R18A) (Saccharomyces cerevisiae, UniProt P20051, R18A)
Sequence (P20051 whole entry R18A): as the sequence (P20051 whole entry T106A) above, with R18A, A106T counted along it
Assay: intrinsic fluorescence quenching titration
Recorded Metric: pKd
Give bare numbers, as −log10 of the molar value.

Request: For O=C(O)c1[nH]c(=O)[nH]c(=O)c1F [5-FOA, 5-fluoroorotate] , write its pKd.
Response: 3.84
